target: T1, Recombinant Human DLL4 (delta-like protein 4) (human, UniProt Q9NR61 27-524); experiment: ELISA, DLL4 coated on plate; Fab at 0.41 (head prints µM, text says nM)
T1 construct: Bought recombinant protein (R&D Systems Cat#1506-D4/CF); also called rHuman DLL4; Delta-like 4
Below, each entry is listed with its recorded ELISA signal.

[
  {
    "Binder": "Fab VH5-51_IGHD5-18*01>3_IGHJ4*01 G100K/G104T G24T/S28R/G35V (H:KT TRV) & V3-4_IGLJ1*01 (Fab, V domains shown, Tested as a Fab made in E. coli; also called H:KT TRV & L:wt; Wildtype (light chain)) VH: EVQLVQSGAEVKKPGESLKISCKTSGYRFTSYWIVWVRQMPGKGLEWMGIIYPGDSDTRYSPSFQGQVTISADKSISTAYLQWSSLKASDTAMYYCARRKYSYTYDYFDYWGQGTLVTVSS VL: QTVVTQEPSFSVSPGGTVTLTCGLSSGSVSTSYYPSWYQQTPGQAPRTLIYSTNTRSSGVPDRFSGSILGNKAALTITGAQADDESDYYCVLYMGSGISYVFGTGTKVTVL",
    "ELISA signal": 0.01
  },
  {
    "Binder": "Fab VH5-51_IGHD5-18*01>3_IGHJ4*01 G100K/G104T G24T/S28R/G35V (H:KT TRV) & V3-4_IGLJ1*01 V91L/S96P (L:LP) (Fab, V domains shown, Tested as a Fab made in E. coli; also called H:KT TRV & L:LP) VH: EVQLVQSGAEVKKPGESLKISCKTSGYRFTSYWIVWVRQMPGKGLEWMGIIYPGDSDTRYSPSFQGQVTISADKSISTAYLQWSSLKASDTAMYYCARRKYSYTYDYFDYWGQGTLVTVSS VL: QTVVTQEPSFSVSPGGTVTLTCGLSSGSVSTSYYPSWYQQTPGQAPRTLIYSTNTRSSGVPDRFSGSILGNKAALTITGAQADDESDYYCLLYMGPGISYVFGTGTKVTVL",
    "ELISA signal": 0.02
  },
  {
    "Binder": "Fab VH5-51_IGHD5-18*01>3_IGHJ4*01 G100K/G104T G24T/S28R/G35V (H:KT TRV) & V3-4_IGLJ1*01 V91L/S96P S52G (Fab, V domains shown, Tested as a Fab made in E. coli; also called H:KT TRV & L:LP S52G) VH: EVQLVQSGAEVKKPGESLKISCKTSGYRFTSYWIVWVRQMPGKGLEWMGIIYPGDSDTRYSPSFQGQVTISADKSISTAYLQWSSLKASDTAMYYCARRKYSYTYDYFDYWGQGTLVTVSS VL: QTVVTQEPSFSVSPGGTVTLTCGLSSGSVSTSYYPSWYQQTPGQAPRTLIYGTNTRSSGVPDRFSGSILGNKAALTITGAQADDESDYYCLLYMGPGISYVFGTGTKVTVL",
    "ELISA signal": 0.01
  }
]
